Each recorded value in this set is attributed to the supplement of paper PMC9170038.

I'd be grateful if you could share measured apparent KD of MS2 coat protein for these entries.
Tested on: MS2 coat protein
Assay: apparent KD of MS2 coat protein; designed switch direction (-1 OFF switch, 1 ON switch): 1; higher = weaker reporter binding
Conditions: Eterna round: R95; input ligand: microRNA oligo, concentration not stated
Answers are plain numbers, in nM.

Here are 3 sequences together with their reported answers.
AGUCCAGCCAGAGCUGGACAAAAGCAUGUACAUGAGGAUCACCCAUGUUCAUGUACAAGCUUUUUGCUCGUCUUAAA [Mat - hsa-mir-208a - Mod of JL - 55] (puzzle: Sensor for hsa-mir-208a) ... 15
UCAUGGUUUUUGCUCGUUUUAUGUGUUGAACAUGAGGAUCACCCAUGUAUUGUACGAUCCAGUUAGAUGGUGGUUUG [JR_SHM208A_Sub043] (puzzle: Sensor for hsa-mir-208a) ... 85.8
AAUUAUUCACAUGAGGAUCACCCAUGUGAUAUUAUUAUUACAAGCUUUUUGCUCGUCUUGUUCCUCAGUGAAUAAUU [Default title] (puzzle: Sensor for hsa-mir-208a version 2) ... 74.5

Batch request: apparent KD of MS2 coat protein for each of the following sequences.
1. GGCUAUCGCGUACGAUAGCUGAAGCGUGUACAUGAGGAUCACCCAUGUCAUGUACAAGCUUUUUGCUCGUCUUAUUG [JL-shm-2.33 JL mod] (puzzle: Sensor for hsa-mir-208a)
2. AUAAAACAUGAGGAUCACCCAUGUCAACAAAAUCGAGGAUAUGGACAGACUUCGGUCUGUCCAGAAGGCGAAUAAU [salish99_ss1_r3_100] (puzzle: Same State 1)
3. AUUAAACAUGAGGAUCACCCAUGUCAACAAAGUCGAGGAUAUGGGCAAAUUAUAUAAUAACCAGAAGGCGAAUAAU [salish99_ss1_r3_083] (puzzle: Same State 1)
4. ACAAGCUUUUCUGCAUCGAAAGGUUGAUAACAUGAGGAUCACCCAUGUAAAUAUGAAAACGAUGCUCCUCGUCUUAU [JR_SHM208A_Sub095] (puzzle: Sensor for hsa-mir-208a)

1: 18.2; 2: 13.8; 3: 18.9; 4: 15.1

Batch request: apparent KD of MS2 coat protein for each of the following sequences.
1. AUUAAACAUGAGGAUCACCCAUGUCUACAAAGUCGAGGAUAUGGGCAAAUAAAAUAAGAACCAGAAGGCGAAUAAU [salish99_ss1_r3_072] (puzzle: Same State 1)
2. GGUCCAGCCUGAGCUGGACCGAAGCAUGUACAUGAGGAUCACCCAUGUCAUGUACAAGCUUUUUGCUCGUCUUAUUG [JL-shm-2.09 JL Mod] (puzzle: Sensor for hsa-mir-208a)
3. AGAAAACAUGAGGAUCACCCAUGUAUAGUGAAUACAGGAUAUCACCAACGGAAUAGUCGGUGAGAAGGGUGAUCGC [Zaxelate] (puzzle: Same State 1)
4. ACACCACAUGAGGAUCACCCAUGUGUCAAUAACACAGGAUAUCACCCGGAAUACACCGGGUGAGAAGGGUGACCGA [Gesois] (puzzle: Same State 1)
5. UUAAAACAUGAGGAUCACCCAUGUCAACAAAGUCGAGGAUAUGGGCAAAUAAAAUAAGAACCAGAAGGCGAAUAAA [salish99_SS1_r3_002] (puzzle: Same State 1)

1: 613; 2: 14.9; 3: 11.3; 4: 30.1; 5: 245

Batch request: apparent KD of MS2 coat protein for each of the following sequences.
1. AGAGUGUAUCCACAGGAUAUGCGAGCUGACACAUGAGGAUCACCCAUGUAGUCCUAAAGGGCUGAGCAGAAGGGUGGUAAAGCUC [Raesvelave] (puzzle: Same State 2)
2. GGCAGGUGCAGGCUUGCUUGCACCUGGAAACAUGAGGAUCACCCAUGUUUGGGACAAGCUUUGCUCCUCGUCUUGUC [JL ViennaUCT Isusreraar mod 2] (puzzle: Sensor for hsa-mir-208a)
3. CGUCCGGCCUGUGCUGGCCGGUGGCGUGUACAUGAGGAUCACCCAUGUUCUUGUGCUGGCUGUUUGCUCGUCUUGUG [salish99_mir208a_r3_025] (puzzle: Sensor for hsa-mir-208a)
4. GGAGCCGGCACCGAGGAUAUUCAUAUUAAAACAUGAGGAUCACCCAUGUAGGCCAGAAGGCCUUGGGAGAAGGCGGACCGGCUCG [Xeonanis - 4] (puzzle: Same State 2)
5. UUUAGUUGCGGGCAGGAUAUGUAUUAAAAUACAUGAGGAUCACCCAUGUGCGGGUAUAACACCCGGCAGAAGGGCCAAUCGCGAC [Laonerce - 3] (puzzle: Same State 2)
6. ACUUGCUUUUUGCUCAUCUUAUGUCCGAAACAUGAGGAUCACCCAUGUGUAGAUUAUGUGUUGUUUUUGAUACGUGA [JR_SHM208A_Sub066] (puzzle: Sensor for hsa-mir-208a)
7. UUUGGGUGGCUGGAGGAUAUUCUAGUGGUUACAUGAGGAUCACCCAUGUGUCGCGCGGUACGCGAGGAGAAGGCUGGCGGCCGUU (puzzle: Same State 2)

44.2
36.5
23
520
191
19
83.5

Batch request: apparent KD of MS2 coat protein for each of the following sequences.
1. CGUGGGUGGCUGGAGGAUAUUCGAGUGGUAACAUGAGGAUCACCCAUGUGUCGCGCGGUACAUGAGGAGAAGGCUGGCGGCCGGC (puzzle: Same State 2)
2. GGAGGACAUGAGGAUCACCCAUGUGGAUGGGCGCUAGGAUAUGCGAGAGGAGGGAGUGGAGCAGAAGGAGUGGGUU [JR_SS1_Sub043] (puzzle: Same State 1)

40.1
50.3
